target: T1, recombinant human PCSK9 (human, UniProt Q8NBP7 31-692); assay: SPR (Biacore 3000); full-length IgG captured on anti-mouse IgG, PCSK9 injected
T1 construct: also called hPCSK9
T1 sequence (Q8NBP7 31-692 limits assumed): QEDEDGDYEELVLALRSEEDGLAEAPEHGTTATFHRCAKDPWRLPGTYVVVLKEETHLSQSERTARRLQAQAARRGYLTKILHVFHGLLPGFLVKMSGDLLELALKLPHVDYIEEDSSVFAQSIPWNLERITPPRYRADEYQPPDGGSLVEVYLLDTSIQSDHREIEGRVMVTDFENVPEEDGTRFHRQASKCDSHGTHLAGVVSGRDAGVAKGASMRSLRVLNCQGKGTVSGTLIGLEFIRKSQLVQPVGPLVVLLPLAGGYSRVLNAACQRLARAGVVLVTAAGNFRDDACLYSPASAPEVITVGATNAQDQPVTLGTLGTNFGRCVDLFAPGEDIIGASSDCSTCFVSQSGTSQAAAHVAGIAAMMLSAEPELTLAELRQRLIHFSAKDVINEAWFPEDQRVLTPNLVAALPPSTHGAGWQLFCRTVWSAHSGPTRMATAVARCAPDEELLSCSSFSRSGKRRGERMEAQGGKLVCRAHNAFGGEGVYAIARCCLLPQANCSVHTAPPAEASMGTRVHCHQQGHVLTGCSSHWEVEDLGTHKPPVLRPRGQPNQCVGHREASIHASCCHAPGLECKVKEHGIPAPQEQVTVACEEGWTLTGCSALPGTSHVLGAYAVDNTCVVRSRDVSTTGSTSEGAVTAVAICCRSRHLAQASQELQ
measurement_name: koff (s⁻¹)
Give a bare numeral; the unit s⁻¹ is implied.

Example cases with answers are listed next.
[
  {
    "binder": "anti-PCSK9 antagonist monoclonal antibody 5A10 (antibody, V domains shown, Murine full-length IgG from a hybridoma; Mouse precursor of L1L3; also called 5A10.B8 (subclone)) VH: QVQLQQPGAELVKPGASVKLSCKASGYTFTSYWMHWVKQRPGQGLEWIGEINPSNGRTNYNEKFKSKATLTVDKSSSTAYMQLSSLTSEDSAVYYCARERPLYAMDYWGQGTSVTVSS VL: DIVMTQSHKFMSTSVGDRVSITCKASQDVSTAVAWYQQKPGQSPKLLIYSASYRYTGVPDRFTGSGSGTDFTFTISSVQAEDLAVYYCQQRYSTPRTFGGGTKLEIKR",
    "measurement_name": "koff",
    "unit_name": "s⁻¹",
    "reported_result": "8.55e-05"
  },
  {
    "binder": "anti-PCSK9 antagonist monoclonal antibody 7D4 (antibody, V domains shown, Murine full-length IgG from a hybridoma; also called 7D4.4 (subclone); ATCC PTA-8983) VH: EVKLVESEGGLVQPGSSMKLSCTASGFTFSDYYMAWVRQVPEKGLEWVANINYDGSNTSYLDSLKSRFIISRDNAKNILYLQMSSLKSEDTATYYCAREKFAAMDYWGQGTSVTVSS VL: DIVMTQSHKFMSTSFGDRVSITCKASQDVSNALAWYQQKPGHSPKLLIFSASYRYTGVPDRFTGSGSGTDFTFTISSVQAEDLAVYYCQQHYSTPWTFGGGTKLEIKR",
    "measurement_name": "koff",
    "unit_name": "s⁻¹",
    "reported_result": 0.000794
  },
  {
    "binder": "anti-PCSK9 antagonist monoclonal antibody 4A5 (antibody, V domains shown, Murine full-length IgG from a hybridoma; also called 4A5.G3 (subclone); ATCC PTA-8985) VH: EVQLQQSGPELVKPGASVKISCKASGYTFTDYYMNWVKQSHGKSLEWIGDINPNNGGTTYNQKFKGKATLTVDKSYSTAYMELRSLTSEDSAVYYCARWLLFAYWGQGTLVTVSA VL: DIVMTQSQKFMSTSVGDRVSVTCKASQNVGTNVAWYQQKPGQSPKALIYSASYRYSGVPDRFTGSGSGTDFTLTISNVLSEDLAEYFCQQFYSYPYTFGGGTKLEIKR",
    "measurement_name": "koff",
    "unit_name": "s⁻¹",
    "reported_result": 0.000189
  }
]

Pending binder:
Give me measured koff, please, for this binder: anti-PCSK9 antagonist monoclonal antibody 6F6 (antibody, V domains shown, Murine full-length IgG from a hybridoma; also called 6F6.G10.3 (subclone); ATCC PTA-8984) VH: EVQLQQSGPELVKPGASVKISCKASGYTFTDYYMNWVKQSHGKSLEWIGDINPNNGGTSYNQKFKGKATLTVDKSSSTAYMELRSLTSEDSAVYYCAGGGIYYRYDRNYFDYWGQGTTLTVSS VL: DIQMTQTTSSLSASLGDRVTISCSASQGISNYLNWYQQKPDGTVKLLIYYTSSLHSGVPSRFSGSGSGTDYSLTISNLEPEDIATYYCQQYSKLPFTFGSGTKLEIK
0.000584
